- test.description: chemical genetic growth profiling, strain panel (AID 1159580);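 also: tested at 20 µM; growth read once vehicle control cultures reached saturation at 30 °C; 1 = growth at the plate median or of vehicle wells; lower values mean less growth of the strain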
- assay.conditions: S. cerevisiae deletion strains, growth OD, locus YIR030C, strain dcg1
In all, about 5,500 compounds went through this assay and about 2,000 (36%) were called active. Inconclusive results (about 18%) are left out. Rule as the data show it: active = normalized growth mostly below about 0.91 (no sharp cut-off); inconclusive = no clear call, values can overlap the other calls; inactive = mostly above about 0.92. This is one part of the list.
Mark one answer only. Choices: TRUE = active, FALSE = inactive

Example entries and their recorded answers appear below.
CC1(C)O[C@@H]2CC3C4CCC5=CC(=O)C=C[C@]5(C)[C@@]4(F)[C@@H](O)C[C@]3(C)[C@]2(C(=O)CO)O1 (some centres not stated): FALSE
CC(=O)O[C@@H]1CC2C(C)(C)C(=O)CC[C@]2(C)C2CC[C@@]3(C)[C@H](c4ccoc4)OC(=O)C4OC43[C@@]21C (some centres not stated): FALSE
C[N+]1(CCCCC[N+]2(C)CCCC2)CCCC1: FALSE
O=c1oc2ccccc2c(O)c1Cc1c(O)c2ccccc2oc1=O: FALSE
O=C(O)/C=C(\CC(=O)O)C(=O)O: FALSE

Please indicate how the test categorized CC(=O)O[C@@H]1CC2C(C)(C)[C@H](O)C[C@H](O)[C@]2(C)C2CC[C@@]3(C)[C@H](c4ccoc4)OC(=O)[C@H]4O[C@]43[C@@]21C (some centres not stated) . FALSE

Please indicate how the test categorized `CC(=O)N(O)CCCCCNC(=O)CCC(=O)N(O)CCCCCNC(=O)CCC(=O)N(O)CCCCCN` . FALSE

Please indicate how the test categorized `O=c1c(-c2ccc(O)cc2)coc2cc(O)cc(O)c12` . FALSE

Please indicate how the test categorized Nc1ccc(C(=O)O)c(O)c1 (tested in a mixture with another compound) . FALSE

Please indicate how the test categorized `CC(=O)Nc1cccc(O)c1` . FALSE

Please indicate how the test categorized `COc1ccc(-c2cc(=O)c3cc(OC)ccc3o2)cc1` . FALSE

Please indicate how the test categorized CC(=O)OC1CC2C(C)(C)CCCC2(C)C2CCC3(C)C(c4ccoc4)OC(=O)C4OC43C12C (configuration not stated) . FALSE

Please indicate how the test categorized `COc1ccc2c(=O)cc(-c3ccccc3OC)oc2c1` . TRUE

Please indicate how the test categorized `COc1cccc(-c2cc(=O)c3ccc(OC)cc3o2)c1` . TRUE

Please indicate how the test categorized `Nc1ccc(C(=O)O)c(O)c1` . FALSE

Please indicate how the test categorized `COc1cc(O)c2c(=O)c(-c3ccc(O)cc3)coc2c1` . FALSE

Please indicate how the test categorized `O=c1c(-c2cc(O)c(O)c(O)c2)coc2cc(O)c(O)c(O)c12` . FALSE

Please indicate how the test categorized `COc1c(O)cc2c(-c3ccccc3)cc(=O)oc2c1OC` . FALSE

Please indicate how the test categorized `COc1c2c(cc3c1OCO3)CC[N+](C)=C2` . FALSE

Please indicate how the test categorized C=C1C(N)CC2CC1C2(C)C (configuration not stated) . FALSE

Please indicate how the test categorized `CC(C)=CCc1c2c(c(O)c3c(=O)c(O)c(-c4ccccc4)oc13)C=CC(C)(C)O2` . TRUE

Please indicate how the test categorized `CC(=O)Nc1ccc(OC(=O)c2ccccc2O)cc1` . FALSE

###

normalized growth overview
- test.description: chemical genetic growth profiling, strain panel (AID 1159580)
- assay.conditions: S. cerevisiae deletion strains, growth OD, locus YLR320W, strain mms22, active compounds read low
About 2,000 (36%) of roughly 5,500 compounds were called active. Another 18% or so got no clear call; they are omitted. The list shows a part of the results.
Reply with just the number.

COc1ccc(-c2cc(=O)c3c(OC)c(OC)c(OC)c(OC)c3o2)cc1: 0.635
CCCN1C[C@H](CSC)C[C@@H]2c3cccc4[nH]cc(c34)C[C@H]21: 0.984
COc1ccc(-c2cc(=O)c3c(O)c(OC)c(OC)c(OC)c3o2)cc1: 1
CCCCCCCCCc1ccc(O)cc1: 0.071
C=CCCCCCCCCCCCC(O)CC(O)CO (configuration not stated): 0.985

The molecule identified as `COc1cccc(-c2cc(=O)c3ccc(OC)cc3o2)c1` registered its normalized growth at 0.824

The molecule identified as `COc1ccc(-c2cc(=O)c3cc(OC)ccc3o2)cc1` registered its normalized growth at 0.869

The molecule identified as `CN(C)CCC=C1c2ccccc2C=Cc2ccccc21` registered its normalized growth at 1.01

###

- test.description: chemical genetic growth profiling, strain panel (AID 1159580)
- assay.conditions: S. cerevisiae deletion strains, growth OD, locus YLR268W, strain sec22, active compounds read low
The campaign covered roughly 5,500 compounds. About 2,000 (36%) were called active. Not shown: some 18% with an inconclusive outcome. This is one part of the list.
# strict inequality: normalized growth < 1 yields true, everything else yields false

Example entries and their recorded answers appear below.
COc1cc2c3cc1Oc1cc(ccc1O)C[C@@H]1c4c(cc(OC)c(O)c4Oc4ccc(cc4)C[C@@H]3N(C)CC2)CC[N+]1(C)C: false
COc1cccc2c1cc([N+](=O)[O-])c1c(C(=O)O)cc3c(c12)OCO3: false
COC(=O)C1=C(C)NC(C)=C(C(=O)OC)C1c1ccccc1[N+](=O)[O-]: true

Read the next record carefully.
Does this molecule meet the criterion normalized growth < 1? `CC(=O)Oc1c(-c2ccccc2)oc2c(CC=C(C)C)c3c(c(OC(C)=O)c2c1=O)C=CC(C)(C)O3` false

###

- test.description: chemical genetic growth profiling, strain panel (AID 1159580);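 also: tested at 20 µM; growth read once vehicle control cultures reached saturation at 30 °C; 1 = growth at the plate median or of vehicle wells; lower values mean less growth of the strain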
- assay.conditions: S. cerevisiae deletion strains, growth OD, locus YJL187C, strain SWE1 (second series)
Among all 5,500 compounds or so, about 2,000 (36%) were called active. Roughly 18% stayed inconclusive and do not appear here. Cut-off read from the data, not from the text of the source: active = normalized growth mostly below about 0.91 (no sharp cut-off); inconclusive = no clear call, values can overlap the other calls; inactive = mostly above about 0.92. This is one part of the list.
Mark one answer only. Choices: active, inactive

Example entries and their recorded answers appear below.
COc1cc(O)c2c(=O)c(-c3ccc(O)cc3)coc2c1: inactive
O=c1c(-c2ccc(O)cc2)coc2cc(O)cc(O)c12: inactive
CC(=O)Oc1cc(OC(C)=O)c2c(=O)c(-c3ccccc3)coc2c1: inactive

Please indicate how the test categorized `CC1=C2C(=CO[C@H](C)[C@H]2C)C(=O)C(C(=O)O)=C1O` . inactive

Please indicate how the test categorized `O=c1c2ccccc2oc2ccc(O)cc12` . active

Please indicate how the test categorized `Nc1nc(N)c2nc(-c3ccccc3)c(N)nc2n1` . inactive

Please indicate how the test categorized `CCCCCCc1ccc(O)cc1O` . inactive

Please indicate how the test categorized `NCCc1ccc(O)c(O)c1` . inactive

Please indicate how the test categorized `NCCc1cccc(O)c1` . inactive

Please indicate how the test categorized `COc1ccc(-c2coc3cc(OC)cc(O)c3c2=O)cc1` . inactive

Please indicate how the test categorized `CN(C)CCC=C1c2ccccc2CCc2ccccc21` . inactive

Please indicate how the test categorized `CCCCC1C(=O)N(c2ccccc2)N(c2ccccc2)C1=O` . inactive

Please indicate how the test categorized CC(N)Cc1ccc(O)cc1 (stereo not drawn) . inactive

###

- test.description: chemical genetic growth profiling, strain panel (AID 1159580);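 also: tested at 20 µM; growth read once vehicle control cultures reached saturation at 30 °C; 1 = growth at the plate median or of vehicle wells; lower values mean less growth of the strain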
- assay.conditions: S. cerevisiae deletion strains, growth OD, locus YOR231W, strain MKK1
Screen size: about 5,500 compounds; about 2,000 (36%) were called active. About 18% were inconclusive and are not listed. No stated cut-off is given here; in the data, active means normalized growth mostly below about 0.91 (no sharp cut-off); inconclusive means no clear call, values can overlap the other calls; inactive means mostly above about 0.92. The list shows a part of the results.
Mark one answer only. Choices: 1.0 = active, 0.0 = inactive

COc1ccc(-c2coc3cc(O)cc(O)c3c2=O)cc1: 1.0
O=C1CN2Cc3c(ccc(Cl)c3Cl)N=C2N1: 0.0

Please indicate how the test categorized `Cc1cc2cc3c(C)cc(=O)oc3c(C)c2o1` . 0.0

Please indicate how the test categorized `O=C1c2ccccc2O[C@@H](c2ccccc2)[C@@H]1NCc1ccccc1` . 0.0

Please indicate how the test categorized COc1cc([C@@H]2c3cc4c(cc3C(O[C@@H]3O[C@@H]5CO[C@@H](c6cccs6)OC5[C@H](O)[C@H]3O)C3COC(=O)[C@@H]32)OCO4)cc(OC)c1O (stereo partly specified) . 0.0

Please indicate how the test categorized `COc1cc(-c2coc3cc(O)c(OC)c(O)c3c2=O)cc(O)c1OC` . 0.0

Please indicate how the test categorized `CC(=O)Oc1cc(-c2coc3cc(OC(C)=O)c(OC(C)=O)c(OC(C)=O)c3c2=O)cc(OC(C)=O)c1OC(C)=O` . 0.0

Please indicate how the test categorized `CN(N=O)C(=O)N[C@@H]1[C@@H](O)[C@H](O)[C@@H](CO)O[C@@H]1O` . 0.0

###

- test.description: chemical genetic growth profiling, strain panel (AID 1159580);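 also: tested at 20 µM; growth read once vehicle control cultures reached saturation at 30 °C; 1 = growth at the plate median or of vehicle wells; lower values mean less growth of the strain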
- assay.conditions: S. cerevisiae deletion strains, growth OD, locus YAL021C, strain ccr4, active compounds read low
Among all 5,500 compounds or so, about 2,000 (36%) were called active. Inconclusive results (about 18%) are left out. This is one part of the list.
# strict inequality: normalized growth < 1 yields Yes, everything else yields No

Example entries and their recorded answers appear below.
CC(C)(C)C(=O)C(Oc1ccc(Cl)cc1)n1cncn1 (configuration not stated): Yes
CCCCOc1cc(CC2CNC(=O)N2)ccc1OC (configuration not stated): Yes
O=c1c2ccccc2oc2ccccc12: Yes

Does this compound meet the criterion normalized growth < 1? COC(=O)C1=C(C)NC(C)=C(C(=O)OCC(C)C)C1c1ccccc1[N+](=O)[O-] (configuration not stated) Yes

Does this compound meet the criterion normalized growth < 1? `CCN1CCN(c2cc3c(cc2F)c(=O)c(C(=O)O)cn3C2CC2)CC1` No

Does this compound meet the criterion normalized growth < 1? `COC(=O)C1=C(C)NC(C)=C(C(=O)OC)C1c1ccccc1[N+](=O)[O-]` Yes

Does this compound meet the criterion normalized growth < 1? `O=c1c2ccccc2[se]n1-c1ccccc1` Yes

Does this compound meet the criterion normalized growth < 1? `COc1ccc(-c2coc3cc(OC(C)=O)cc(OC(C)=O)c3c2=O)cc1` Yes

Does this compound meet the criterion normalized growth < 1? CC(=O)[C@H]1CCC2C3CC=C4C[C@@H](O)CC[C@]4(C)C3CC[C@@]21C (some centres not stated) Yes

Does this compound meet the criterion normalized growth < 1? `CC1=NCCc2c1[nH]c1cc(O)ccc21` Yes

Does this compound meet the criterion normalized growth < 1? CC(=O)OCC(=O)[C@H]1CCC2C3CC=C4C[C@@H](O)CC[C@]4(C)C3CC[C@@]21C (some centres not stated) No

Does this compound meet the criterion normalized growth < 1? `CCCCCCCCCCCCCCCC[n+]1ccccc1` Yes
